- system.under.test: DYRK1B (human)
- test.name: radiometric filter-binding kinase assay, Kinase HotSpot
- test.parameters: compound 0.5 µM; ATP 10 µM
Could you please report measured residual activity for the items listed next?
Number only, in %; omit the unit.

Tested on DYRK1B (human), the item COc1cc2c(Nc3ccc(Br)cc3F)ncnc2cc1OCC1CCN(C)CC1 showed residual activity equal to 93

// assay DYRK1B (human), entry COc1cc2ncnc(Nc3ccc(O)c(Br)c3)c2cc1OC , residual activity value = 91.3

Test item CC(C)(C)n1nc(Cc2cccc3ccccc23)c2c(N)ncnc21 ; DYRK1B (human); reported residual activity was 98.6

Test item N#C/C(=C1/Nc2ccccc2S1)c1ccnc(NCCc2cccnc2)n1 ; DYRK1B (human); reported residual activity was 53.2

The measured residual activity that FC(F)(F)c1ccc(/C=C/c2nc(COc3ccc(CCCCn4ccnn4)cc3)co2)cc1 showed for DYRK1B (human) is 96.7

Case O=C(O)c1ccc2c3c1cccc3c(=O)n1c3ccccc3nc21 , DYRK1B (human), residual activity recorded as 40.1

Reading of residual activity for COc1cccc(-c2cc(=O)c3ccccc3o2)c1N with DYRK1B (human): 88.1

Result for O=c1[nH]c2ccccc2n1C1CCN(Cc2ccc(-c3nc4cc5[nH]cnc5cc4nc3-c3ccccc3)cc2)CC1 , tested on DYRK1B (human), residual activity: 97.9

Field residual activity (system: DYRK1B (human)) for entry N/C(=N\N=C/c1ccc(-c2cccc([N+](=O)[O-])c2)o1)N[N+](=O)[O-] = 104

O=c1cc(N2CCOCC2)oc2c(-c3ccccc3)cccc12 on DYRK1B (human) gives residual activity = 96.8

// assay DYRK1B (human), entry O=c1c(-c2ccc(F)cc2)c(-c2ccncc2)[nH]n1-c1ccc(Cl)cc1 , residual activity value = 92.2

Summary: O=c1c2ccccc2[nH]c(=S)n1CCN1CCC(=C(c2ccc(F)cc2)c2ccc(F)cc2)CC1 , DYRK1B (human), residual activity = 97.1

The observed residual activity for N#CCCc1ccc2c(c1)-c1[nH]c3ccc([N+](=O)[O-])cc3c1CC(=O)N2 when tested with DYRK1B (human) stands at 76.8

Item CCCCc1c(-c2ccc(O)cc2)[nH]c2nccnc12 was tested on DYRK1B (human); the reported residual activity is 73.3

Record Cc1cc(Nc2nc(-c3ccccc3)nc3ccccc23)n[nH]1 has DYRK1B (human) residual activity equal to 90.8

The molecule CCc1nc(-c2ccc(OC)cc2)[nH]c1-c1ccncc1 , tested on DYRK1B (human), showed residual activity of 106

The molecule N#Cc1c(NC(=O)c2cccc3ccccc23)sc2c1CCCC2 on DYRK1B (human): residual activity was 101

Result for COc1cc2c(N3CCN(C(=O)Nc4ccc(OC(C)C)cc4)CC3)ncnc2cc1OCCCN1CCCCC1 , tested on DYRK1B (human), residual activity: 97.9

# lookup: O=C1NC(=O)c2c1c1c3ccccc3[nH]c1c1[nH]c3cc(Br)ccc3c21 on DYRK1B (human), residual activity = 82.8

Here Nc1ncnc2c1cnn2-c1ccccc1 was tested on DYRK1B (human), and its residual activity came to 93

Form field residual activity for item O=C(c1ccccc1)c1ccc(N2CCOCC2)cc1O on DYRK1B (human): 105

DYRK1B (human) residual activity of O=S(=O)(NCCNC/C=C/c1ccc(Br)cc1)c1cccc2cnccc12 is 95.3
